tested.on: human glucagon receptor (human) (UniProt P47871)
Sequence (P47871 26-477): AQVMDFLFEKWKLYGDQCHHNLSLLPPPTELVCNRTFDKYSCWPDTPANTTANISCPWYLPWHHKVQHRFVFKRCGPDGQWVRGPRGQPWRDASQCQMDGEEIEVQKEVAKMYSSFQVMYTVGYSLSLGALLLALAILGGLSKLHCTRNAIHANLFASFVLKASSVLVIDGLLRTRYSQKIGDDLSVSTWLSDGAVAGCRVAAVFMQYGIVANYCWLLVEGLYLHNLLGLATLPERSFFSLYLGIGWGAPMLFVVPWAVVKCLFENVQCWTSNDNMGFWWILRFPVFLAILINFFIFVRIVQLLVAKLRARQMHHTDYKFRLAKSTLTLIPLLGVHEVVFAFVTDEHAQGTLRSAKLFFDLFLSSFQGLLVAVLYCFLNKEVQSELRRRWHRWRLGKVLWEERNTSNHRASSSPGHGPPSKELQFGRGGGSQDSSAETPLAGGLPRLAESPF
assay.remarks: cell-based or functional assay
readout.kind: Relative cAMP EC50 (nM)
# value in nM; strip the unit string

Please look at this binder and report its Relative cAMP EC50: YXQGTXTSDXSILLDXKAQXAFIEXLEEGGPSSGAPPPSGTGE (synthetic construct; SITE 2: note = 2-Aminoisobutyric Acid; SITE 6: note = alpha-methyl-2-fluoro-L-phenylalanine; SITE 10: note = 3-(4-Pyridyl)-L-alanine; SITE 16: note = L-ornithine; SITE 17: note = Lysine is chemically modified through conjugation of the epsilon-amino group of the Lysine side chai) [Example 665 (SEQ ID NO: 671)]
2.94

Let me know recorded Relative cAMP EC50 for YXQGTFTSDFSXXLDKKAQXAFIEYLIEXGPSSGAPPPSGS (synthetic construct; SITE 2: note = 2-Aminoisobutyric Acid; SITE 12: note = (S)-2,4-diaminobutanoic acid; SITE 13: note = alpha-methyl-leucine; SITE 17: note = Lysine is chemically modified through conjugation of the epsilon-amino group of the Lysine side chain with (2-[2-(2-Amino-ethoxy)-ethoxy]-ac)) [Example 799] , thanks.
1.64

For the binder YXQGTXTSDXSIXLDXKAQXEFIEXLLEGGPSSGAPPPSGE (Aib, αMeF(2F), 4Pal, Orn, Me4Pal, αMeY; acylated lysine; amide; synthetic construct; SITE 2: note = 2-Aminoisobutyric Acid; SITE 6: note = alpha-methyl-2-fluoro-L-phenylalanine; SITE 10: note = 3-(4-Pyridyl)-L-alanine; SITE 13: note = alpha-methyl-leucine; SITE 16: note = L-ornithine; SITE 17: note = Lysine is chemically modified through conjugation of the epsil) [Example 615] , give its measured Relative cAMP EC50 value.
3.93
